test name: Antioxidant activity assessed as […] by ABTS-spectrophotometric assay
Type: functional
Design: concentration or dose not given beside the values
test parameters: dose or concentration not given here
Kindly state inhibition for each of the entries shown.
Response body: numeric value in %, unit text excluded.

Dear colleague, I am looking for the recorded inhibition of the following compound: "C/C(=N\N=C(/C)c1ccc(NC(=O)c2ccccc2C(=O)O)cc1)c1ccccc1" 9.85

What does the data say about its inhibition? Entry: "O=C(NN1C(=O)c2ccccc2C1=O)c1ccc(NC(=O)c2ccccc2C(=O)O)cc1" 8.39

I would be grateful if you could share the reported inhibition for "CCOC(=O)c1ccc(NC(=O)c2ccccc2C(=O)O)cc1" . 4.09

Requested field: inhibition. Item: "CC(=O)c1ccc(NC(=O)c2ccccc2C(=O)O)cc1" 7.42

Reported inhibition for "O=C(N/N=C/c1ccccc1)c1ccc(NC(=O)c2ccccc2C(=O)O)cc1" : what is it? 8.78

Recorded inhibition for "C/C(=N\NC(=O)c1ccc(NC(=O)c2ccccc2C(=O)O)cc1)c1ccc(NC(=O)c2ccccc2C(=O)O)cc1" , please? 9.95

Report inhibition for "COc1ccc(/C=N/N=C(\C)c2ccc(NC(=O)c3ccccc3C(=O)O)cc2)cc1" please. 23

Field request: inhibition | item: "COc1ccc(/C=N/NC(=O)c2ccc(NC(=O)c3ccccc3C(=O)O)cc2)cc1" 4.29

Endpoint output: inhibition of "O=C(N/N=C/c1ccc(Cl)cc1)c1ccc(NC(=O)c2ccccc2C(=O)O)cc1" . Value? 19.5

Entry under review: "C/C(=N\N=C\c1ccccc1)c1ccc(NC(=O)c2ccccc2C(=O)O)cc1" . Reported inhibition? 12.9

# query: inhibition of entry "C/C(=N\N=C\c1ccc(Cl)cc1)c1ccc(NC(=O)c2ccccc2C(=O)O)cc1" 24.8

###

test name: Antioxidant activity assessed as […] by ABTS-spectrophotometric assay
Type: functional
Design: concentration or dose not given beside the values
test parameters: dose or concentration not given here
So basically: inhibition at 10% or higher? That is fulfilled. Lower than 10%? That is not fulfilled.

Decide: is the reported value of inhibition for "C/C(=N\N)c1ccc(NC(=O)c2ccccc2C(=O)O)cc1" equal to or greater than 10%? fulfilled

Decide: inhibition of "C/C(=N\N=C(/C)c1ccc(NC(=O)c2ccccc2C(=O)O)cc1)c1ccc(NC(=O)c2ccccc2C(=O)O)cc1" >= 10%? fulfilled

In plain terms: is recorded inhibition at least 10% for "C/C(=N\NC(=O)c1ccc(NC(=O)c2ccccc2C(=O)O)cc1)c1ccccc1" ? not fulfilled

Given "NNC(=O)c1ccc(NC(=O)c2ccccc2C(=O)O)cc1" , state whether its inhibition is at least 10%. fulfilled

Item "C/C(=N\N1C(=O)c2ccccc2C1=O)c1ccc(NC(=O)c2ccccc2C(=O)O)cc1" with inhibition of 10% or above? not fulfilled
